As an illustration, consider measured pIC50 for molecules on human ATX (Homo sapiens (Human), UniProt Q13822).
pIC50: −log10 of the molar value.

>  <molecule>
C[C@@]12CN(C(=O)OCc3ccc(OC(F)(F)F)cc3)C[C@H]1CN(C(=O)c1ccc(S(N)(=O)=O)cc1)C2 [Example 4.00]

>  <pIC50>
8.22

$$$$
>  <molecule>
CO[C@]12CN(C(=O)OCc3ncc(C(F)(F)F)cc3NC(=O)C(C)(C)C)C[C@@H]1CN(C(=O)c1ccc(S(N)(=O)=O)cc1)C2 (racemic) [Example 1.03]

>  <pIC50>
8.22

$$$$
>  <molecule>
CO[C@@]12CN(C(=O)c3cc(OCC4CCOCC4)nc(C4CC4)c3)C[C@H]1CN(C(=O)c1ccc(S(N)(=O)=O)cc1F)C2 (relative stereo) [Example 1.02]

>  <pIC50>
8.22

$$$$
